Below, each of the compounds is paired with its reported activation value.
- TESTED_SYSTEM: Peroxisome proliferator-activated receptor gamma (Homo sapiens)
- ASSAY_REMARKS: PPARgamma agonists recruiting SRC-3 coactivator, primary screen, biochemical (AID 731);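 further: 0% = DMSO and 100% = reference agonist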
- CONDITION: biochemical PPARgamma/SRC-3 coactivator recruitment assay; at 8 µM; active compounds read high
Out of some 200,000 compounds screened, about 520 (0.26%) were called active. The list comes from a sample in which actives are over-represented; it also holds close analogues and randomly drawn compounds.
EXPERIMENTAL_READOUT: activation (%)

COMPOUND	MEASUREMENT_UNITS	OBSERVED_MEASUREMENT
CN(C)c1ccc(C(=S)N2CCN(C(=S)Nc3ccc(Cl)cc3)CC2)cc1	%	2.08
O=C(CSc1nc2cccnc2n1Cc1ccccc1)N1CCc2ccccc21	%	-2.44
O=C(CNC(=O)C(c1ccccc1)c1ccccc1)N/N=C\c1ccc2c(c1)OCO2	%	-7.73
Cc1cc(C)cc(N(CC(=O)NCCSCc2ccco2)S(C)(=O)=O)c1	%	5.41
O=C(Cn1c(N2CCN(C/C=C/c3ccccc3)CC2)nc2ccccc21)c1ccccc1	%	6.67
COc1ccc(N2C(=O)CC(SC(C)C)C2=O)cc1 (stereo not given)	%	-1.07
Cc1ccc(S(=O)(=O)N(C)CC(=O)OCC(=O)N2CC(=O)Nc3ccccc32)cc1	%	-1.93
CCCCCOc1ccc(/C=C/C(=O)NCCc2nc3ccccc3[nH]2)cc1OC	%	0.87
NS(=O)(=O)c1cc(C(=O)NCCOc2ccccc2)c(Cl)cc1Cl	%	-1.64
O=C(NCc1cccs1)C1CCN(S(=O)(=O)c2ccc(Cl)cc2)CC1	%	0.55

Cited source for all entries: PubChem BioAssay AID731
